Cited source: PubChem BioAssay

Assay: human hepatoma cell viability loss – ATP luminescence, cytotoxicity control for P. falciparum antimalarial project, primary screen (AID 2303);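 further: 0% = DMSO wells and 100% = digitonin-killed cells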
Settings: HepG2 viability, 24-48 h, at 10 µM, active compounds read high
Hi! Could you tag entries with inhibition below 30% as met, and those at or above as not met? Much appreciated.

Is 30% strictly greater than the compound's reported inhibition? compound: CN1CCC(Oc2ccc(CN3CC[C@H](NC(=O)c4ccc(Cl)c(Cl)c4)C3)cc2Cl)C1 (some centres undefined)
not met

Try the compound O=C(NCCCCN1CCN(c2ccc3c(c2)CCC3)CC1)c1ccc(NC(=O)c2ccc(Cl)cc2)cc1
not met

Try the compound OC1(c2ccccc2)c2cc(Cl)ccc2OC1c1nc2c(Cl)ccc(Cl)c2o1 (centres undefined)
met

Try the compound CC(C)CCNCc1c(O)ccc2ccccc12
met

Try the compound O=S(=O)(c1c(Cl)cc(Cl)cc1Cl)N1CCCCC(c2ccc(C(F)(F)F)cc2)=N1
met

Try the compound CCCc1cc(N2CCC(N3CCCC3)CC2)nc(Nc2ccc(Cl)cc2)n1
met

Try the compound COc1ccc(-c2cccc(NC(=O)c3ccc(C#N)cc3)c2)cc1CN(C)CCN(C)C
met

Try the compound Cc1ccc(-c2cc(C(=O)Nc3ccc(S(=O)(=O)N(C)Cc4ccccc4)cc3)[nH]n2)c(O)c1
not met

Try the compound CC(=O)Nc1cc(C(=O)Nc2cccc(-c3csc(-c4nc5ccccc5[nH]4)c3)c2)ccc1C
not met

====

Test: inhibition of 3D7 malaria parasite growth – strain 3D7 (AID 2306);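 further: 0% = DMSO wells and 100% = chloroquine plus artemisinin control wells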
Conditions: P. falciparum 3D7 erythrocytic growth, LDH absorbance, 72 h; at 2 µM; active compounds read high
So I've got a bunch of compounds here, and I need their growth inhibition values.
Express the result in % but write the number alone.

Consider the compound shown here: O=C(NCCCCN1CCC(c2ccc3c(c2OCCO)CCCC3)CC1)c1ccc(-c2ccc(C(F)(F)F)cc2)cc1 What is its recorded growth inhibition?
98

Try the compound CC(C)(C)c1ccc(NC(=O)N[C@@H]2CCN(c3ccnc4ccccc34)C2)cc1
102

Try the compound COc1ccc(-c2cccc(NC(=O)c3cccc(Cl)c3)c2)cc1CN1CCC(O)CC1
98

Try the compound Cc1cccc2[nH]c(-c3ccc(-c4ccc(CN5CCC(N)C5)cc4)s3)nc12 (stereo not given)
100

Try the compound Cc1cc(-c2nc3ccc(CN4CCN(C)CC4)cc3[nH]2)nn1Cc1cc(Cl)ccc1OCc1ccccc1
100

====

Target: Calcium-dependent protein kinase 1 (Plasmodium falciparum (isolate 3D7)) (UniProt P62344)
Sequence (P62344 whole entry, looked up): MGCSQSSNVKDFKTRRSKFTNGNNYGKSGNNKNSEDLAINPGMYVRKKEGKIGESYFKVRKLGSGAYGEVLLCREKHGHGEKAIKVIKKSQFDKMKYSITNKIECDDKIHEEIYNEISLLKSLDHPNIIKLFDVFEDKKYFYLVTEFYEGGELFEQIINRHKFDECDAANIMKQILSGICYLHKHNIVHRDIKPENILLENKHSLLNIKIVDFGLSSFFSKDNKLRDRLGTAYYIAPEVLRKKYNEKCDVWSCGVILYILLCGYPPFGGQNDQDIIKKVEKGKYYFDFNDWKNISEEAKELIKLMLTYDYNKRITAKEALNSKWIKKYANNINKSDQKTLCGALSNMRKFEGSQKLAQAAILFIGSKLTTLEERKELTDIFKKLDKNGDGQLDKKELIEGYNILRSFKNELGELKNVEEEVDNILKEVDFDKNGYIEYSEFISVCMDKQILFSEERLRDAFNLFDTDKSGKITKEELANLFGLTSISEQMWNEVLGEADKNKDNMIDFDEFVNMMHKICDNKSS
Assay: PfCDPK1 kinase inhibitors, biochemical, TCAMS library (AID 1159585);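 further: inhibitors leave more ATP so luminescence rises with inhibition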
Conditions: recombinant PfCDPK1, Kinase-Glo ATP depletion luminescence
Results with a measured potency or affinity are listed apart. Activity calls are given as the source filed them. No cut-off is given here; in the data, nearly all actives have IC50 up to about 0.98 µM.
Observation Type: outcome

These recorded examples may help you get a feel for the data.
Consider the compound shown here: CC(=O)Oc1ccc(C(=O)Oc2ccccc2C#CC#N)cc1OC(C)=O What is its recorded outcome?
inactive

Try the compound O=C(Nc1ccc(F)c([N+](=O)[O-])c1)Nc1cc(C(F)(F)F)ccc1Cl
inactive

Try the compound C=CC(=O)Nc1ccc(Cl)cc1C(O)c1ccccc1 (stereo not given)
inactive

Try the compound COc1ccc2nccc([C@@H](O)CN3CCC(NC(=O)c4ccc(OC)c(N)c4)CC3)c2c1
inactive

// switching to the query compound
Consider the compound shown here: Cn1c(NC2=NC3(c4ccccn4)N=C(Nc4nc5ccccc5n4C)NC3(c3ccccn3)N2)nc2ccccc21 (stereo not given) What is its recorded outcome?
inactive

====

Molecular target: L-lactate dehydrogenase (Plasmodium falciparum (isolate CDC / Honduras)) (UniProt Q27743)
Sequence (Q27743 whole entry, looked up): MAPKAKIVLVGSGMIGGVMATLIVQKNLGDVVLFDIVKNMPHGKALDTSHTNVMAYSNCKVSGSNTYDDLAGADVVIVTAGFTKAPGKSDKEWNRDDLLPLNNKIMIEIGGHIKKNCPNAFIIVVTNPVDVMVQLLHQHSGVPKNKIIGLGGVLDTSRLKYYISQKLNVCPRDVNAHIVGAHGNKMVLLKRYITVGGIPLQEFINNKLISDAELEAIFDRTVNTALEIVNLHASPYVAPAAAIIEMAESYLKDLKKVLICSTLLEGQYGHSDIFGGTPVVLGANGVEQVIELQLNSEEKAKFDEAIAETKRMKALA
Assay: PfLDH activity inhibition – cell lysate, 3D7 strain, counter-screen for P. falciparum growth inhibition project (AID 2304);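 further: 0% = vehicle and 100% = reference inhibitor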
Settings: P. falciparum 3D7 crude extract, LDH APAD/NBT absorbance; at 2 µM; active compounds read high
So I've got a bunch of compounds here, and I need their inhibition values.
Express the result in % but write the number alone.

Request - read-out inhibition | tested on L-lactate dehydrogenase (Plasmodium falciparum (isolate CDC / Honduras)) (UniProt Q27743) | compound COc1cc(C2CCCCC2)c(OC)cc1CC1c2cc(O)c(Cl)cc2CCN1C (centres undefined)
4

Try the compound c1ccc(-c2ccc3c(Nc4ccc5[nH]ncc5c4)ccnc3c2)nc1
4

Try the compound CC(=O)c1ccc(S(=O)(=O)N2CCC(C(=O)Nc3ccccc3N3CCCC3)CC2)cc1
-8

Try the compound CC(C)c1ncc(-c2ccncc2)c(C2CCC(CNC(=O)c3ccncc3)CC2)n1 (centres undefined)
4

Try the compound CCOc1cc2c(cc1S(=O)(=O)c1ccc(COc3ccc(C(F)(F)F)cc3)cc1)CCN(C)CC2
-5

Try the compound CCCOc1ccc(NC(=O)c2cccs2)cc1Cl
-4

Try the compound Cc1ccc2nc(/N=C(\N)NC(=O)NC3CCCCC3)nc(C)c2c1
0

Try the compound CCc1cn2c3c(cc(C(=O)N[C@@H](Cc4cc(F)cc(F)c4)[C@H](O)CNC4CCOCC4)cc13)N(C)S(=O)(=O)CC2
-7

Try the compound CN1CCN(Cc2cccc(-c3ccc4c(Nc5ccc(Oc6cccnc6)cc5)ccnc4c3)c2)CC1
0

Try the compound CCOc1c(OC)ccc2c1CCN(CCN1CCC(CNC(=O)c3ccc(-c4ccc(C#N)cc4)cc3)CC1)C2
7

Try the compound NC(N)=Nc1ccc(OCCCCCOc2ccc(N=C(N)N)cc2Br)c(Br)c1
0

Try the compound c1cc(-c2ccc(CN3CCCCC3)cc2)cc(-c2nc3ccccc3[nH]2)c1
5

Try the compound CCCCCCP(=O)(COc1ccc(CCN(CC(O)COc2cccc3[nH]c(C(N)=O)cc23)CC(O)COc2cccc3[nH]c(C(N)=O)cc23)cc1)OCCCC (centres undefined)
3

Try the compound CC(CCON1C(N)=NC(N)=NC1(C)C)c1ccc(Cl)c(Cl)c1 (centres undefined)
-3

Try the compound CCCCN1CCCN(Cc2cccc(NC(=O)c3ccc(-c4ccccc4)cc3)c2)CC1
5

Try the compound CN(C(=O)C1(c2ccc(Cl)cc2)CC1)C1CCN(CCCCCNC(=O)/C=C/c2ccc(Cl)c(Cl)c2)CC1
-2

Try the compound CCOc1cc(C(=O)NC2CC(C)(C)NC(C)(C)C2)ccc1-c1nc2ccc(Cl)cc2[nH]1
4

Try the compound Cc1ccc(-c2nc(Nc3ccncc3)c3ccccc3n2)s1
1

Try the compound Cc1ccc(-n2c(=O)c3cccnc3n2CC(=O)Nc2cccc(C)c2C)cc1
-3

====

Test: inhibition of 3D7 malaria parasite growth – strain 3D7 (AID 2306);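 further: 0% = DMSO wells and 100% = chloroquine plus artemisinin control wells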
Conditions: P. falciparum 3D7 erythrocytic growth, LDH absorbance, 72 h; at 2 µM; active compounds read high
So I've got a bunch of molecules here, and I need their growth inhibition values.
Express the result in % but write the number alone.

Consider the molecule shown here: CCC(C)NS(=O)(=O)c1ccc2nc(Nc3ccc(C)c(Cl)c3)n(C(C)C(C)C)c2c1 (centres undefined) What is its recorded growth inhibition?
98

Try the molecule CCn1c(=O)c(C(=O)Nc2cc(Cl)c(OC)cc2OC)nc2ccccc21
86

Try the molecule CC(=O)C=C1CC(=O)N(C[C@@H](O)[C@H]2O[C@@H]3OC(C)(C)O[C@@H]3[C@H]2O)c2ccccc2N1
90

Try the molecule O=C(NCc1ccco1)c1ccc(S(=O)(=O)c2ccc(Cl)cc2)cc1
97

Try the molecule Cc1cccc2[nH]c(-c3ccc(-c4ccc(NC(=O)NCc5ccccc5)cc4)s3)nc12
93

Try the molecule COc1cc(NCC(C)CNCc2cn(Cc3ccccc3)c3ccccc23)nc2ccccc12 (centres undefined)
90

Try the molecule CCCC(=O)NC(c1ccc(C)cc1)c1ccc2cccnc2c1O (centres undefined)
88

Try the molecule Cc1nnsc1C(=O)Nc1ccc(-c2cccc(-c3nc4ccc(C(F)(F)F)cc4[nH]3)c2)cc1
97

Try the molecule Cc1cccc2[nH]c(-c3cccc(-c4cccc(NC(=O)c5cccnc5Cl)c4)c3)nc12
97

====

Assay: inhibition of 3D7 malaria parasite growth – strain 3D7 (AID 2306);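 further: 0% = DMSO wells and 100% = chloroquine plus artemisinin control wells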
Conditions: P. falciparum 3D7 erythrocytic growth, LDH absorbance, 72 h; at 2 µM; active compounds read high
Calls of active or inactive are those of the source. The rule behind the calls is not given here.
So I've got a bunch of compounds here, and I need their growth inhibition values.

Consider the compound shown here: Cc1noc(C)c1-c1cccc(CNCc2ccc(-c3cccc(-c4nc5ccccc5[nH]4)c3)cc2)c1 What is its recorded growth inhibition?
100% (active)

Try the compound COc1cc(CNCCCCCCNCc2cc(OC)cc3ccccc23)c2ccccc2c1
100% (active)

Try the compound CN1CCN(Cc2cc3cc(NC(=O)/C=C/c4cccc(Cl)c4)ccc3s2)CC1
100% (active)

Try the compound O=C(NCCc1ccc(Cl)c(Cl)c1)C1CCCN(C(=O)c2ccc(O)c(-c3ccc(Cl)c(Cl)c3)c2)C1 (centres undefined)
96% (active)

Try the compound Fc1ccc2nc(-c3cccc(-c4cccc(CNCCN5CCNCC5)c4)c3)[nH]c2c1
94% (active)

Try the compound CC(C)N1CCN(C(=O)c2ccc(CN(C)CCCN3CCN(c4cccc(Cl)c4Cl)CC3)s2)CC1
94% (active)

Try the compound CC1(C)C(N(O)C(=O)Nc2ccc(Cl)c(Cl)c2)N(c2ccc(Cl)c(Cl)c2)C(=O)N1CCc1ccccc1 (centres undefined)
91% (active)

Try the compound N#Cc1nc2ccc(OCCN(Cc3ccccc3C(F)(F)F)c3ccc(C#N)c(C(F)(F)F)c3)cc2s1
93% (active)

Try the compound COc1cc(NC(=O)C(c2ccc(Cl)cc2)C(C)C)cc(OC)c1 (centres undefined)
99% (active)

Try the compound Fc1ccc2nc(-c3cccc(-c4cccc(CNCCc5ccncc5)c4)c3)[nH]c2c1
100% (active)

Try the compound c1ccc2c(Nc3ccc(Oc4ccc(Nc5c6ccccc6nc6ccccc56)cc4)cc3)c3ccccc3nc2c1
101% (active)

Try the compound CC1CN(Cc2ccccc2)CCN1c1ccc(NC(=O)c2cccs2)cc1 (centres undefined)
96% (active)

Try the compound Cn1cccc1C(=O)C(=O)Nc1ccc(-c2ccc(-c3nc4ccc(F)cc4[nH]3)cc2)cc1
92% (active)

Try the compound N#Cc1cc(C(=O)c2cc(Br)ccc2O)cn(C2CCCCC2)c1=O
89% (active)

Try the compound O=C(Nc1ccsc1)Nc1cccc(-c2cccc(-c3nc4ccc(C(F)(F)F)cc4[nH]3)c2)c1
102% (active)

Try the compound Cc1cc(C2CCN(CCCCNC(=O)c3ccc(-c4ccc(C(F)(F)F)cc4)cc3)CC2)c(C)cc1OCC#N
100% (active)

Try the compound COc1cc(OC)c(OC)cc1CN1CCC2(CC1)CN(Cc1ccc(Cl)c(Cl)c1)C(=O)O2
90% (active)

Try the compound CC(=O)c1cccc(Nc2nc3c(C#N)c(OCc4cc(Cl)cc(Cl)c4)ccc3[nH]2)c1
86% (active)

Try the compound Cc1ccc(NC(=O)c2ccc3ncccc3c2)cc1OC1CCN(CCC(C)C)C1 (centres undefined)
98% (active)
